Recorded pIC50 for the following compounds
Biological target: Alpha-2A adrenergic receptor (Homo sapiens, UniProt P08913)
Sequence (P08913 whole entry, looked up): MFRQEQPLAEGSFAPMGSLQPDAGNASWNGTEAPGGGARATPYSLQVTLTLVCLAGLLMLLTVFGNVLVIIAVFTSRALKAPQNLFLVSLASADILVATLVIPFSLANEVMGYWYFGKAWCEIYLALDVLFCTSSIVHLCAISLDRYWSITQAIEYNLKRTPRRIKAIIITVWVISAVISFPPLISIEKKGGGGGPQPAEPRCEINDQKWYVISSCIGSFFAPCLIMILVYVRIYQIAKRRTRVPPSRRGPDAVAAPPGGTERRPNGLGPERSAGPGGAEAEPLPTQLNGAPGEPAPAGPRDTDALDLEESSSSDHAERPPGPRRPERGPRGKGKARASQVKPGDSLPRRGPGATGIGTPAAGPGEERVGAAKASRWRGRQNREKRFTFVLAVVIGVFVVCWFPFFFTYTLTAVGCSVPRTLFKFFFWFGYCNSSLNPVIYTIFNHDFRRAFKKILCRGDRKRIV
Assay: Inhibitory activity against constitutively activated human Alpha-2A adrenergic receptor transiently expressed in COS-1 cells using [3H]MK-912
pIC50: −log10 of the molar value.

# compound, measurement.target, pIC50
rows = [
    ("CN(C)c1nc(NCC2CCC(NS(=O)(=O)c3ccc(Br)cc3OC(F)(F)F)CC2)nc2ccccc12 (trans isomer)", "Alpha-2A adrenergic receptor (Homo sapiens, UniProt P08913)", 7.68),
    ("Nc1nc(NCC2CCC(CNS(=O)(=O)c3ccc(Br)cc3OC(F)(F)F)CC2)nc2ccccc12 (trans isomer)", "Alpha-2A adrenergic receptor (Homo sapiens, UniProt P08913)", 7.00),
    ("CN(C)c1nc(NC2CCC(NS(=O)(=O)c3ccc(Br)cc3OC(F)(F)F)CC2)nc2ccccc12 (trans isomer)", "Alpha-2A adrenergic receptor (Homo sapiens, UniProt P08913)", 7.33),
    ("CN(C)c1nc(NCC2CCC(CNS(=O)(=O)c3ccc(Br)cc3OC(F)(F)F)CC2)nc2ccccc12 (trans isomer)", "Alpha-2A adrenergic receptor (Homo sapiens, UniProt P08913)", 8.11),
    ("CN(C)c1nc(NC2CCN(S(=O)(=O)c3ccc(Br)cc3OC(F)(F)F)CC2)nc2ccccc12", "Alpha-2A adrenergic receptor (Homo sapiens, UniProt P08913)", 6.77),
    ("CN(C)c1nc(NCC2CCC(CNS(C)(=O)=O)CC2)nc2ccccc12 (stereo not given)", "Alpha-2A adrenergic receptor (Homo sapiens, UniProt P08913)", 7.07),
    ("CCCCS(=O)(=O)NCC1CCC(CNc2nc(N(C)C)c3ccccc3n2)CC1 (trans isomer)", "Alpha-2A adrenergic receptor (Homo sapiens, UniProt P08913)", 7.24),
    ("O=S(=O)(NCC1CCC(CNc2ncc3ccccc3n2)CC1)c1ccc(Br)cc1OC(F)(F)F (trans isomer)", "Alpha-2A adrenergic receptor (Homo sapiens, UniProt P08913)", 6.85),
    ("CN(C)c1nc(NCC2CCN(S(=O)(=O)c3ccc(Br)cc3OC(F)(F)F)CC2)nc2ccccc12", "Alpha-2A adrenergic receptor (Homo sapiens, UniProt P08913)", 8.25),
    ("CN(C)c1nc(NC2CCC(CNS(=O)(=O)c3ccc(Br)cc3OC(F)(F)F)CC2)nc2ccccc12 (stereo not given)", "Alpha-2A adrenergic receptor (Homo sapiens, UniProt P08913)", 6.96),
]
